Molecular target: huCTLA4 (Homo sapiens, UniProt P16410)
Sequence (P16410 36-223): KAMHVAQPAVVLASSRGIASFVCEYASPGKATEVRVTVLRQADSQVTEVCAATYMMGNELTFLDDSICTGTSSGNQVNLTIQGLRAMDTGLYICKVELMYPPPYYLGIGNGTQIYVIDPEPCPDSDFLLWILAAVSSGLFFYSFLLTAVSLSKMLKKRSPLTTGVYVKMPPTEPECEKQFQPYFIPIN
Assay: Flow binding to CHO cells stably expressing CTLA4
Parameters: huCTLA4 and huPD-L1, full-length mammalian surface expression constructs were generated; expressed in transfected cells; host or cells: CHO cells, lentiviral transduction, sorted to >98% purity
Settings: Table E19; MFI at 33.3 nM relative to WT CD80 ECD-Fc (Abcam)
Experimental: Binding of selected immunomodulatory fusion proteins to cognate binding partners was assessed. […] Cells were sorted in a Bio-Rad S3 Cell Sorter (Bio-Rad Corp., USA) to >98% purity. […] For staining and analysis by flow cytometry, 100,000 cells of appropriate transfected cells were plated in 96-well round bottom plates. […] Cells were then washed twice with 150 μL/well stain buffer, fixed in 2% formaldehyde/PBS, and analyzed on Intellicyt flow cytometer (Intellicyt Corp., USA). […]
The entries below are paired with their reported CTLA4 Fold change to WT CD80.
Report the figure in fold without appending any unit label.

{"columns": ["molecule", "unitSpec", "CTLA4 Fold change to WT CD80"],
 "data": [
  ["M47V/V68M (protein) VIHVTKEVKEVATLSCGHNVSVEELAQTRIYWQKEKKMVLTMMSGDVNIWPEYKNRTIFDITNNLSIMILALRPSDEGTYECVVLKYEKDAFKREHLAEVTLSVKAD", "fold", 0.2]
]}

// moving on: another record for CTLA4 Fold change to WT CD80
Requested read-out: CTLA4 Fold change to WT CD80. Entry: K89N (protein) VIHVTKEVKEVATLSCGHNVSVEELAQTRIYWQKEKKMVLTMMSGDMNIWPEYKNRTIFDITNNLSIVILALRPSDEGTYECVVLKYENDAFKREHLAEVTLSVKAD
0.0
